I'd appreciate it if you could supply screen value values for the items below.
B1: SH3BP2 peptide 410-425 (SH3 domain-binding protein 2), 16-mer library wild type / TNKS ANK (TNKS 12 ANK repeats, residues 174-649) (parent)
chain 1: LPHLQRSPPDGQSFRS
chain 2: TGVPAVSGALRELLEACRNGDVSRVKRLVDAANVNAKDMAGRKSSPLHFAAGFGRKDVVEHLLQMGANVHARDDGGLIPLHNACSFGHAEVVSLLLCQGADPNARDNWNYTPLHEAAIKGKIDVCIVLLQHGADPNIRNTDGKSALDLADPSAKAVLTGEYKKDELLEAARSGNEEKLMALLTPLNVNCHASDGRKSTPLHLAAGYNRVRIVQLLLQHGADVHAKDKGGLVPLHNACSYGHYEVTELLLKHGACVNAMDLWQFTPLHEAASKNRVEVCSLLLSHGADPTLVNCHGKSAVDMAPTPELRERLTYEFKGHSLLQAAREADLAKVKKTLALEIINFKQPQSHETALHCAVASLHPKRKQVTELLLRKGANVNEKNKDFMTPLHVAAERAHNDVMEVLHKHGAKMNALDTLGQTALHRAALAGHLQTCRLLLSYGSDPSIISLQGFTAAQMGNEAVQQILSESTPIRTSD

Variants of: B1
test: proteomic peptide phage display deep mutational scan (ProP-PD DMS): M13 P8 16-mer library selected against immobilised GST-tagged bait for four days (rounds), NGS of the eluted pools per day and pseudo-replica
condition.parameters: with TNKS ANK (TNKS 12 ANK repeats, residues 174-649); bait immobilised on MaxiSorp plates (10 µg), library pre-cleared on GST, 2 h binding at 4 °C, five washes; one round per day, days 1-4; value from days 2 and 3; keep out of graded; scale: average fractional NGS count over selection days 2 and 3
Numbers only.

Please review the entries below; each comes with its answer.
chain 1 LPHLQRSPPDDQSFRS [chain 1 G11D]: 0.000101
chain 1 LPHLQTSPPDGQSFRS [chain 1 R6T]: 0
chain 1 LPHLQRSPPHGQSFRS [chain 1 D10H]: 0

Please report screen value for every entry that follows.
1. chain 1 LPDLQRSPPDGQSFRS [chain 1 H3D]
2. chain 1 LPHLQRSPPDGRSFRS [chain 1 Q12R]
3. chain 1 LPHLIRSPPDGQSFRS [chain 1 Q5I]

["4.19e-05", "6.14e-05", "7.42e-05"]

Give one value of screen value per listed variant.
1. chain 1 LPHLQRSPPDLQSFRS [chain 1 G11L]
2. chain 1 LPHLQRSPPWGQSFRS [chain 1 D10W]
3. chain 1 LKHLQRSPPDGQSFRS [chain 1 P2K]
4. chain 1 LPHLQRWPPDGQSFRS [chain 1 S7W]
5. chain 1 LPHLQRSPPDEQSFRS [chain 1 G11E]
6. chain 1 LPHLQRSPPRGQSFRS [chain 1 D10R]
7. chain 1 LPHLQQSPPDGQSFRS [chain 1 R6Q]

0
7.2e-05
3.03e-05
1.87e-05
0
4.95e-05
0

Entry chain 1 LPHLQRSPPDGQKFRS [chain 1 S13K] has what screen value?
0

These entries and their values trace back to paper PMC12102759.
